Ref: patent US12590062B2

- measurementTarget: PD-1/PD-L1 (Homo sapiens)
- Sequence (Q9NZQ7 19-238 limits assumed): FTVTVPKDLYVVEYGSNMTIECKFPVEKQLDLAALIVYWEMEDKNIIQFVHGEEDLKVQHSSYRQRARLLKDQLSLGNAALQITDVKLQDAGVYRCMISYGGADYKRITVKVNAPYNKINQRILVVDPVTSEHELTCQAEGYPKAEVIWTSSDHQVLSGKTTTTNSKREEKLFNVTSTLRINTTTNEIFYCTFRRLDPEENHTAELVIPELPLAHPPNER
- assayMethodText: PD-1/PD-L1 biochemical protein-protein interaction assay (ALPHA)
- conditionInfo: 0.3 nM His tagged PD-L1, 2.5 nM biotinylated Fc-PD-1, 60 minutes at 25° C., read-out: IC50 PD-L1-PD-1 Alpha IC50-mono PD-L1-fcP-D1
outcomeMeasure: IC50 (nM)

[a] COc1cc(OCc2cccc(-c3cccc(COc4cc(OCc5cncc(C#N)c5)c(CNC[C@@H](O)CC(=O)O)cc4Cl)c3C)c2C)c(Cl)cc1CNCC(=O)NS(C)(=O)=O [Example 355]
[b] COc1nc(-c2cccc(-c3cccc4c3CC[C@@H]4Oc3nc(OC)c(CNC[C@@H]4CCC(=O)N4)cc3Cl)c2Cl)ccc1CN[C@@H]1CCC[C@@H]1O [Example 644]
[c] Cc1c(COc2nc(OCc3cncc(S(C)(=O)=O)c3)c(CN[C@](C)(CO)C(=O)O)cc2Br)cccc1-c1cccc(COc2nc(OCc3cncc(S(C)(=O)=O)c3)c(CN[C@](C)(CO)C(=O)O)cc2Br)c1C [Example 40]
[d] Cc1c(COc2cc(OCc3cncc(C#N)c3)c(CNC[C@@H](O)CC(=O)O)cc2Cl)cccc1-c1cccc(-c2ccc(O[C@H]3CCCN(CCO)C3)cc2)c1C [Example 354]
[e] C[C@](CO)(NCc1cc(Br)c(OCc2cccc(-c3cccc(-c4ccc5c(c4)C[C@@H](N)C5)c3Cl)c2Cl)nc1OCc1cncc(S(C)(=O)=O)c1)C(=O)O [Example 547]
Sort the 5 molecules by IC50; largest first, smallest last. In plain terms: list the labels in the order you were asked to.
b, e, d, a, c

----------
- measurementTarget: PD-1/PD-L1 (Homo sapiens)
- assayMethodText: PD-1/PD-L1 biochemical protein-protein interaction assay (ALPHA)
- conditionInfo: 0.3 nM His tagged PD-L1, 2.5 nM biotinylated Fc-PD-1, 60 minutes at 25° C., read-out: IC50 PD-L1-PD-1 Alpha IC50-mono PD-L1-fcP-D1
outcomeMeasure: IC50 (nM)

1) COc1nc(O[C@H]2CCc3c(-c4cccc(-c5cnc6c(CNC[C@@H]7CCC(=O)N7)cn(C)c6n5)c4Cl)cccc32)c(Cl)cc1CN1CC[C@@H](C(=O)O)C1 [Example 528] = 0.068

[1] COc1nc(-c2cccc(-c3cccc4c3CC[C@@H]4Oc3nc(OC)c(CN4CCC(C)(C(=O)O)C4)cc3Cl)c2Cl)ccc1CNC[C@@H]1CCC(=O)N1 (stereo partly drawn) [Example 763]
[2] COc1nc(OCc2cccc(-c3cccc(COc4nc(OC)c(CNC[C@@H](O)CC(=O)O)cc4S(C)(=O)=O)c3C)c2C)c(S(C)(=O)=O)cc1CNC[C@@H](O)CC(=O)O [Example 263]
Response body: label of entry with the larger IC50; valid values 1 , 2 . Reply briefly: the label of your chosen item.
2

----------
- measurementTarget: PD-1/PD-L1 (Homo sapiens)
- assayMethodText: PD-1/PD-L1 biochemical protein-protein interaction assay (ALPHA)
- conditionInfo: 0.3 nM His tagged PD-L1, 2.5 nM biotinylated Fc-PD-1, 60 minutes at 25° C., read-out: IC50 PD-L1-PD-1 Alpha IC50-mono PD-L1-fcP-D1
outcomeMeasure: IC50 (nM)

1) Cc1c(COc2cc(OCc3cncc(C#N)c3)c(CNCCO)cc2Cl)cccc1-c1cccc2c1CCN2C(=O)c1ccc(CNCCO)c(OCc2cncc(C#N)c2)c1 [Example 205] = 6.9
2) COc1nc(OCc2cccc(-c3cccc(COc4nc(OC)c(CNC[C@@H](O)CC(=O)O)cc4Br)c3C#N)c2Cl)c(Br)cc1CNC[C@@H](O)CC(=O)O [Example 562] = 0.102
3) Cc1c(COc2cc(OCc3cncc(C#N)c3)c(CN[C@@](C)(CO)C(=O)O)cc2Cl)cccc1-c1c(F)ccc(-c2ccc(CN(C)C)cc2)c1Cl [Example 301] = 0.109

[A] CC(C)(NCc1cc(Cl)c(OCc2cccc(-c3cccc(-c4ccc(OCCNCCO)cc4)c3Cl)c2Cl)nc1OCc1cc(C#N)cc(C#N)c1)C(=O)O [Example 578]
[B] COc1nc(OCc2cccc(-c3cccc(-c4ccc5c(c4)C[C@@H](N)C5)c3Cl)c2Cl)c(Br)cc1CNC[C@H](O)CC(=O)O [Example 548]
[C] COc1nc(-c2cccc(-c3cccc(OCc4ccc(CNC[C@@H]5CCC(=O)N5)cc4)c3Cl)c2Cl)ccc1CNC[C@@H]1CCC(=O)N1 [Example 426]
Please put the entries in order of rising IC50. In plain terms: list the labels in the order you were asked to.
A, C, B
(A: 0.111 nM, C: 0.397 nM, B: 0.676 nM)

----------
- measurementTarget: PD-L1 (Homo sapiens)
- Construct: determine if they can specifically dimerize the extracellular domains of PD-L1
- assayMethodText: PD-L1/PD-L1 dimerization biochemical protein-protein interaction assay (ALPHA)
- Type: binding
- conditionInfo: compound-induced PD-L1 dimerization, head prints '1 nM' (0.5 nM His-tagged PD-L1 and 0.5 nM FLAG-tagged PD-L1), read-out: AC50 PDL1 Dimer Alpha 1 nM
outcomeMeasure: AC50 (nM)

[a] COc1nc(O[C@H]2CCc3c(-c4cccc(-c5ccc6c(c5)C[C@@H](N)C6)c4Cl)cccc32)ccc1CN[C@@](C)(CO)C(=O)O [Example 783]
[b] COc1nc(-c2cccc(-c3cccc4c3CC[C@@H]4Oc3nc(OC)c(CN4C[C@H](C(=O)O)[C@@H](C(C)C)C4)cc3Cl)c2Cl)ccc1CNC[C@@H]1CCC(=O)N1 [Example 760]
[c] COc1nc(O[C@H]2CCc3c(-c4cccc(-c5ccc(C6=N[C@H](C)CN6)c(OC)n5)c4Cl)cccc32)c(Br)cc1CN[C@@](C)(CO)C(=O)O [Example 782]
Sort the 3 compounds by AC50; largest first, smallest last. In plain terms: list the labels in the order you were asked to.
a, b, c
(a: 823 nM, b: 44.2 nM, c: 23.1 nM)

[1] COc1nc(-c2cccc(-c3cccc4c3CC[C@@H]4Oc3nc(OC)c(CNC[C@@H]4CCC(=O)N4)cc3Br)c2Cl)ccc1CNC[C@@H]1CCC(=O)N1 [Example 736]
[2] COc1nc(O[C@H]2CCc3c(-c4cccc5c4CC[C@@H]5Oc4ccc(CNC[C@@H](O)CC(=O)O)c(OCc5cncc(C#N)c5)n4)cccc32)c(Br)cc1CNC[C@@H](O)CC(=O)O [Example 678]
Response body: label of entry with the larger AC50; valid values 1 , 2 . Reply briefly: the label of your chosen item.
2
(2: 254 nM, 1: 18.4 nM)

----------
- measurementTarget: PD-1/PD-L1 interaction (Homo sapiens)
- Construct: expressed in transfected cells; host or cells: CHO cells (aAPC-PD-L1) co-cultured with Jurkat cells overexpressing PD-1 and an NFAT-luciferase reporter
- Sequence (Q9NZQ7 19-290): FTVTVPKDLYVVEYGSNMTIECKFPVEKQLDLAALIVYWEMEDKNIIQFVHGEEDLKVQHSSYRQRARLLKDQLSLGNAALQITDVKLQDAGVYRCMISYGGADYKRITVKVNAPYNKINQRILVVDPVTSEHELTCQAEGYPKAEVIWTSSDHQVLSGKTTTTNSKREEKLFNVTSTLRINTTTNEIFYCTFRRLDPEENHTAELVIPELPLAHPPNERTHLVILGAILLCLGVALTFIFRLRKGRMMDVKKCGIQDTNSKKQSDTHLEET
- assayMethodText: PD-1/PD-L1 NFAT reporter co-culture assay
- Assay type: cell-based
- conditionInfo: Jurkat PD-1 NFAT-luciferase cells co-cultured with aAPC-PD-L1 CHO cells, 6 hrs at 37° C.; read-out: EC50 NFAT Luciferase
pEC50: −log10 of the molar value.
outcomeMeasure: pEC50

These recorded examples may help you get a feel for the data.
1. Cc1c(COc2cc(OCc3cncc(C#N)c3)c(CNC[C@@H](O)CC(=O)O)cc2Cl)cccc1-c1cccc(-c2ccc3oc(CNC[C@@H](O)CC(=O)O)cc3c2)c1C = 6.94
2. Cc1c(COc2cc(OCc3cncc(C#N)c3)c(CNC[C@H](O)CO)cc2Br)cccc1-c1cccc(COc2cc(OCc3cncc(C#N)c3)c(CNC[C@H](O)CO)cc2Br)c1C = 6.29
3. COc1cc(-c2cccc(-c3cccc(COc4nc(OCc5cncc(C#N)c5)c(CNC[C@@H]5CCC(=O)N5)cc4Br)c3Cl)c2Cl)ccc1CNC[C@@H]1CCC(=O)N1 = 7.03
4. COc1nc(OCc2cccc(-c3cccc(COc4nc(OC)c(CN5CCC[C@H]5C(=O)O)cc4Cl)c3C)c2C)c(Cl)cc1CN1CCC[C@H]1C(=O)O = 6.48
5. COc1nc(-c2cccc(-c3cccc(-c4ccn5cc(CNC[C@@H]6CCC(=O)N6)nc5c4)c3Cl)c2Cl)ccc1CNC[C@@H]1CCC(=O)N1 = 6.73
6. Cc1c(COc2cc(OCc3cncc(C#N)c3)c(CNC[C@@H](O)CC(=O)O)cc2Cl)cccc1-c1cccc(-c2ncc(COCCNC[C@@H](O)CC(=O)O)s2)c1C = 6.28

[a] COc1nc(O[C@H]2CCc3c(-c4cccc(-c5ccc(CNC[C@@H]6CCC(=O)N6)cc5)c4Cl)cccc32)c(Cl)cc1CN1CC[C@H](O)C1
[b] CNC(=O)COc1nc(O[C@H]2CCc3c(-c4cccc(-c5ccc(OCCNC[C@@H](O)CC(=O)O)cc5)c4C)cccc32)ccc1CNC[C@@H](O)CC(=O)O
[c] COc1nc(-c2cccc(-c3cccc4c3CC[C@@H]4Oc3nc(OCc4cncc(C#N)c4)c(CN[C@@](C)(CO)C(=O)O)cc3Br)c2Cl)ccc1C1=NCCN1
[d] Cc1c(COc2cc(OCc3cncc(C#N)c3)c(CNC[C@@H]3CCC(=O)N3)cc2Cl)cccc1-c1cccc(-c2ccc(CNC[C@@H]3CCC(=O)N3)cc2)c1C
Please list the entries, largest pEC50 first. In plain terms: list the labels in the order you were asked to.
c, d, a, b
